Where these numbers come from: patent US6838456B2

target: human recombinant PDE5 (Homo sapiens, UniProt O76074); test: Inhibitory effect on cGMP-PDE (one-step assay, 8-[H3]-cGMP); details: in vitro
MEASUREMENT_TYPE: IC50 (nM)
Quick reminder: number only, in nM, skip the unit.

Solved cases (2 shown):
CCOC(=O)c1cc(CNCc2ccccc2)n2c1Cc1c([nH]c3ccccc13)C2c1ccc2c(c1)OCO2 (stereo not drawn) | 10
CCOC(=O)c1cc(CO)n2c1Cc1c([nH]c3ccccc13)C2c1ccc2c(c1)OCO2 (stereo not drawn) | 10

For CCOC(=O)c1c(C(=O)O)c(CC)n2c1Cc1c([nH]c3ccccc13)C2c1ccc2c(c1)OCO2 (stereo not drawn) , write its IC50.
5.9

----------
target: human recombinant PDE5 (Homo sapiens); assay: Inhibitory effect on cGMP-PDE (one-step assay, 8-[H3]-cGMP); settings: in vitro
Lab note: compare IC50 with 4 nM, writing YES if less and NO if equal or more.

Consider the worked cases shown below.
c1ccc2c3c([nH]c2c1)C(c1ccc2c(c1)OCO2)n1cccc1C3 (stereo not drawn) | NO
CN(C(=O)O)C(=O)c1ccn2c1Cc1c([nH]c3ccccc13)C2c1ccc2c(c1)OCO2 (stereo not drawn) | YES
CCOC(=O)c1c(C(=O)OCC)c(C(C)C)n2c1Cc1c([nH]c3ccccc13)C2c1ccc2c(c1)OCO2 (stereo not drawn) | NO
CCOC(=O)c1cc(C(C)C)n2c1Cc1c([nH]c3ccccc13)C2c1ccc2c(c1)OCO2 (stereo not drawn) | NO

We now examine a further compound.
Dear colleague, could you confirm whether IC50 of CCOC(=O)c1cn2c(c1C(=O)OCC)Cc1c([nH]c3ccccc13)C2c1ccc2c(c1)OCO2 (stereo not drawn) falls below 4 nM? Thanks.
YES
